TARGET_OF_ASSAY: T1, Human EphA2 (Ecto), C-terminal polyHis (Human, UniProt P29317 24-537)
T1 construct: extracellular domain; also called EPH receptor A2; ephrin type-A receptor 2
PROTOCOL_TEXT: fluorescence polarisation competition; competitor fluorescent Compound 66
Starred links: 1 amine or outer side, 2 acyl side, 3 side chain; linkers in the order of their positions; H or OH if unused. Positions of bridges follow the written chain, without caps; N, C: chain ends. Non-standard residues stand in square brackets, D forms with d. Primed or numbered codes have the meaning given here. No end group written: not given here. TBMB′ = 1,3,5-tris(bromomethyl)benzene, 1,3,5-tris(methylene)benzene core, three thioethers to Cys; Phe(3,4-Cl2) = N[C@@H](Cc1ccc(Cl)c(Cl)c1)C(=O)O; 1Nal = N[C@@H](Cc1cccc2ccccc12)C(=O)O; 2Nal = N[C@@H](Cc1ccc2ccccc2c1)C(=O)O; TBMB = c1c(C[*:1])cc(C[*:3])cc1C[*:2]; hArg = N=C(N)NCCCC[C@H](N)C(=O)O; Tle = CC(C)(C)[C@H](N)C(=O)O; Pip = O=C(O)[C@@H]1CCCCN1; Aze = O=C(O)[C@@H]1CCN1; Aib = CC(C)(N)C(=O)O; Sar = CNCC(=O)O
ASSAY_METRIC: log10(Ki) (log10 of the value in nM)
// do not treat as linear: log10 of Ki, unit nM

These recorded examples may help you get a feel for the data.
[Sar][Sar]ACPWGP[Phe(3,4-Cl2)]WCPVNRPGC (linker 4-11-18 via TBMB′, also called Compound 90) [Bicycle Compound Number 90 (TBMB scaffold)]	2.56
[Sar][Sar]ACP[1Nal]GPFWCP[Tle]NR[Aib]GC (linker 4-11-18 via TBMB, also called Sar2-ACP(1Nal)GPFWCP(tBuGly)NR(Aib)GC) [Bicycle Compound Number 131 (TBMB scaffold)]	0.83
[Sar][Sar]ACPWGPFWCPVN[hArg]PGC (linker 4-11-18 via TBMB) [Bicycle Compound Number 103 (TBMB scaffold)]	2.23
[Sar][Sar]AC[Aib][1Nal]GPFWCPVNRPGC (linker 4-11-18 via TBMB) [Bicycle Compound Number 113 (TBMB scaffold)]	0.82
[Sar][Sar]ACP[1Nal]G[Aib]FWCPVNRP[dA]C (linker 4-11-18 via TBMB) [Bicycle Compound Number 128 (TBMB scaffold)]	1.20

Incoming: Form field: reported log10(Ki) of [Sar][Sar]ACP[2Nal]GPFWCPVNRPGC (linker 4-11-18 via TBMB, also called Compound 77) [Bicycle Compound Number 77 (TBMB scaffold)]
Outgoing: 2.66

Incoming: Form field: reported log10(Ki) of [Sar][Sar]AC[Aib]WGPF[1Nal]CPVNRPGC (linker 4-11-18 via TBMB) [Bicycle Compound Number 114 (TBMB scaffold)]
Outgoing: 1.63

Incoming: Form field: reported log10(Ki) of [Sar][Sar]ACPWGPF[1Nal]CPVNRPGC (linker 4-11-18 via TBMB′, also called Compound 96) [Bicycle Compound Number 96 (TBMB scaffold)]
Outgoing: 1.83

Incoming: Form field: reported log10(Ki) of [Sar][Sar]ACP[1Nal]G[Aib]FWCPV[dA]RPGC (linker 4-11-18 via TBMB, also called Sar2-ACP(1Nal)G(Aib)FWCPV(D-Ala)RPGC) [Bicycle Compound Number 127 (TBMB scaffold)]
Outgoing: 1.52

Incoming: Form field: reported log10(Ki) of [Sar][Sar]ACPWGPFWCPVNRAGC (linker 4-11-18 via TBMB) [Bicycle Compound Number 104 (TBMB scaffold)]
Outgoing: 2.29

Incoming: Form field: reported log10(Ki) of ACPWGPFWCPVNRPGCA (linker 2-9-16 via TBMB, also called Compound 69) [Bicycle Compound Number 69 (TBMB scaffold)]
Outgoing: 1.85

Incoming: Form field: reported log10(Ki) of ACPWGPAWCPVNRPGCAGAAA (linker 2-9-16 via TBMB (inferred), also called Compound 45) [Bicycle Compound Number 45 (TBMB scaffold)]
Outgoing: 2.07

Incoming: Form field: reported log10(Ki) of [Sar][Sar]ACPWGPFWCPVNR[Pip]GC (linker 4-11-18 via TBMB) [Bicycle Compound Number 108 (TBMB scaffold)]
Outgoing: 2.57

Incoming: Form field: reported log10(Ki) of [Sar][Sar]ACPWGPAWCPVNRPGC (linker 4-11-18 via TBMB′, also called Compound 83) [Bicycle Compound Number 83 (TBMB scaffold)]
Outgoing: 2.46

Incoming: Form field: reported log10(Ki) of ACTTGSIWCALQFEPCA (linker 2-9-16 via TBMB (inferred), also called Compound 64) [Bicycle Compound Number 64 (TBMB scaffold)]
Outgoing: 1.80

Incoming: Form field: reported log10(Ki) of [Sar][Sar]ACPWGPFWCPVNR[dA]GC (linker 4-11-18 via TBMB) [Bicycle Compound Number 105 (TBMB scaffold)]
Outgoing: 2.67

Incoming: Form field: reported log10(Ki) of ACPWGPAWCPVRDTNCA (linker 2-9-16 via TBMB, also called Compound 42) [Bicycle Compound Number 42 (TBMB scaffold)]
Outgoing: 2.50

Incoming: Form field: reported log10(Ki) of ACVPQGIWCALQFEPCA (linker 2-9-16 via TBMB (inferred), also called Compound 63) [Bicycle Compound Number 63 (TBMB scaffold)]
Outgoing: 1.92

Incoming: Form field: reported log10(Ki) of [Sar][Sar]ACPWGP[1Nal]WCPVNRPGC (linker 4-11-18 via TBMB′, also called Compound 94) [Bicycle Compound Number 94 (TBMB scaffold)]
Outgoing: 2.29

Incoming: Form field: reported log10(Ki) of [Sar][Sar]ACPWGPF[1Nal]CPV[dA]RPGC (linker 4-11-18 via TBMB, also called Sar2-ACPWGPF(1Nal)CPV(D-Ala)RPGC) [Bicycle Compound Number 117 (TBMB scaffold)]
Outgoing: 1.88

Incoming: Form field: reported log10(Ki) of [Sar][Sar]AC[Aib]WGPFWCPVNRPGC (linker 4-11-18 via TBMB, also called Compound 74) [Bicycle Compound Number 74 (TBMB scaffold)]
Outgoing: 2.14

Incoming: Form field: reported log10(Ki) of [Sar][Sar]ACPWGPFWC[Aze]VNRPGC (linker 4-11-18 via TBMB′, also called Compound 97) [Bicycle Compound Number 97 (TBMB scaffold)]
Outgoing: 2.46
